system: grafted B16 F0 murine melanoma tumour; experiment: Biodistribution of the ^125I-labelled molecules in the melanoma-bearing mouse (autoradiography of whole-body sections); conditions: 1 H after i.v. administration, ^125I-labelled compound
Structures can show the parent of a compound that is named as a salt.
Threshold 6 % ID/g: Concentration of radioactivity, lungs, Mean strictly smaller gives TRUE, otherwise FALSE.

* CCN(CC)CCNC(=O)c1nc2ccccn2c1I [compound 16, dihydrochloride] | FALSE
* CCN(CC)CCNC(=O)c1cc2cc(I)ccc2[nH]1 [compound 10, hydrochloride] | FALSE
* CCN(CC)CCNC(=O)c1ccc(I)nc1 [compound 7, dihydrochloride] | FALSE
* CCN(CC)CCNC(=O)c1nc2ccc(I)cc2[nH]1.Cl.Cl [compound 26] | TRUE
* CCN(CC)CCNC(=O)c1cc2c(I)cccc2s1.Cl [compound 13] | TRUE
* CCN(CC)CCNC(=O)c1ccc2cc(I)ccc2c1 [compound 3, hydrochloride] | FALSE
* CCN(CC)CCNC(=O)c1ccc2cc(I)ccc2n1.Cl.Cl [compound 31] | FALSE
